# Tested on: Valsa mali
# assay.summary: Ex vivo mycelial growth inhibition, growth rate method
# Assay type: cell-based
# test.conditions: Cytospora mali, 1 mg/mL
Quick reference for inhibition at 1000 µg/mL among some compounds
// note: answer is a bare numeric in %

Worked examples, 3 compounds total:
O=C(/C=C/c1ccc2c(c1)OCO2)N1CCCCC1	100
CCCNC(=O)/C=C/c1ccc2c(c1)OCO2	91.8
CC12CC1(C)C(=O)N(c1cc(Cl)cc(Cl)c1)C2=O (stereo not shown)	89

Now consider a different compound.
For N#Cc1c(Cl)c(Cl)c(Cl)c(C#N)c1Cl the compound record lists inhibition at 1000 µg/mL as 79.1

---

# Tested on: C. gossypii
# assay.summary: Ex vivo mycelial growth inhibition, growth rate method
# Type: cell-based
# test.conditions: Colletotrichum gossypii; C. cossypii; 1 mg/mL; read-out: Inhibition Rate
measure.name: inhibition at 1000 µg/mL (%)
Respond with the bare value in %.

Answered examples (3):
CCCNC(=O)/C=C/c1ccc2c(c1)OCO2	67.8
COC(=O)Nc1nc2ccccc2[nH]1 [Carbendazim, carbendazim]	100
O=C(/C=C/c1ccc2c(c1)OCO2)N1CCCCC1	98.2

Simply: COc1ccc(C(=CC(=O)N2CCOCC2)c2ccc(Cl)cc2)cc1OC [Dimethomorph] , C. gossypii, inhibition at 1000 µg/mL = 56.3

The measured inhibition at 1000 µg/mL that N#Cc1c(Cl)c(Cl)c(Cl)c(C#N)c1Cl [Chlorothalonil, chlorothalonil] showed for C. gossypii is 73.2

Response field inhibition at 1000 µg/mL (C. gossypii) for item CC12CC1(C)C(=O)N(c1cc(Cl)cc(Cl)c1)C2=O (stereo not drawn) [Procymidone, procymidone] : 70

---

Parameter: Average Diameter of the Colony. Scope: all listed entries.
# Test system: Phytophthora infestans
# assay.summary: microbe, parasite or virus in culture
# Type: cell-based
# test.conditions: 1 mg/mL
Please answer using the number first and the unit second.

Previously resolved entries follow.
N#Cc1c(Cl)c(Cl)c(Cl)c(C#N)c1Cl	0.20 cm
CO/C=C(/C(=O)OC)c1ccccc1Oc1cc(Oc2ccccc2C#N)ncn1	0.00 cm
COC(=O)Nc1nc2ccccc2[nH]1	6.80 cm
COc1ccc(C(=CC(=O)N2CCOCC2)c2ccc(Cl)cc2)cc1OC	0.00 cm
CC12CC1(C)C(=O)N(c1cc(Cl)cc(Cl)c1)C2=O (stereo not shown)	0.00 cm

Item CCCNC(=O)/C=C/c1ccc2c(c1)OCO2 was tested on Phytophthora infestans; the reported Average Diameter of the Colony is 0.00 cm

Phytophthora infestans Average Diameter of the Colony of O=C(/C=C/c1ccc2c(c1)OCO2)N1CCCCC1 is 0.00 cm

---

Parameter Average Diameter of the Colony: see the listing below.
# Test system: F. oxysporum f. sp. vasinfectum
# assay.summary: Ex vivo mycelial growth inhibition, growth rate method
# Assay type: cell-based
# test.conditions: 1 mg/mL
# Experimental: […] The inhibition of samples for testing on the mycelial growth of plant pathogenic fungi for testing is determined with a growth rate method. […] 7 days later (10-20 days may be needed for some pathogenic fungi), the diameter of the colony is measured with a cross over method according to the mycelial growth profile of the control pathogenic fungi, then the inhibition rate of mycelial growth is calculated. […]
Write your answer as a measured quantity: the number, then the unit.

CC12CC1(C)C(=O)N(c1cc(Cl)cc(Cl)c1)C2=O (stereo not shown) [Procymidone, procymidone]	2.57 cm
N#Cc1c(Cl)c(Cl)c(Cl)c(C#N)c1Cl [Chlorothalonil, chlorothalonil]	2.45 cm
CO/C=C(/C(=O)OC)c1ccccc1Oc1cc(Oc2ccccc2C#N)ncn1 [Azoxystrobin, azoxystrobin]	3.03 cm

We now examine a further compound.
Average Diameter of the Colony reading for COc1ccc(C(=CC(=O)N2CCOCC2)c2ccc(Cl)cc2)cc1OC [Dimethomorph] : 6.03 cm

---

# System: Phytophthora infestans
# Type: cell-based
# test.conditions: Phytophthora infestas; 1 mg/mL
Reported Average Diameter of the Colony values for a set of molecules

// solved cases for Average Diameter of the Colony follow
N#Cc1c(Cl)c(Cl)c(Cl)c(C#N)c1Cl	1.78 cm
COC(=O)Nc1nc2ccccc2[nH]1	0.00 cm
O=C(/C=C/c1ccc2c(c1)OCO2)N1CCCCC1	0.81 cm
CC12CC1(C)C(=O)N(c1cc(Cl)cc(Cl)c1)C2=O (centres unmarked)	0.80 cm

# ---- query molecule ----
Measured Average Diameter of the Colony, CCCNC(=O)/C=C/c1ccc2c(c1)OCO2 : 2.05 cm

---

Known Average Diameter of the Colony of a selection of molecules
# System: F. graminearum
# assay.summary: microbe, parasite or virus in culture
# Type: cell-based
# test.conditions: F. graminearum; 1 mg/mL
// note: answer is a bare numeric in cm

N#Cc1c(Cl)c(Cl)c(Cl)c(C#N)c1Cl	1.92

The value of Average Diameter of the Colony measured for the molecule CCCNC(=O)/C=C/c1ccc2c(c1)OCO2 turned out to be 3.49

molecule CC12CC1(C)C(=O)N(c1cc(Cl)cc(Cl)c1)C2=O (stereo not shown) , Average Diameter of the Colony observed: 3.57

---

# Test system: Botrytis cinerea
# assay.summary: Ex vivo mycelial growth inhibition, growth rate method
# Type: cell-based
# test.conditions: 1 mg/mL
Param threshold (1 cm) applies to Average Diameter of the Colony; output Criterion met when value >= threshold, Criterion not met when value < threshold.

Examples with answers:
CC12CC1(C)C(=O)N(c1cc(Cl)cc(Cl)c1)C2=O (stereo not shown)	Criterion met
N#Cc1c(Cl)c(Cl)c(Cl)c(C#N)c1Cl	Criterion met
CO/C=C(/C(=O)OC)c1ccccc1Oc1cc(Oc2ccccc2C#N)ncn1	Criterion met
COC(=O)Nc1nc2ccccc2[nH]1	Criterion not met

Ask: Decide: Average Diameter of the Colony of COc1ccc(C(=CC(=O)N2CCOCC2)c2ccc(Cl)cc2)cc1OC >= 1 cm?
Result: Criterion met

Ask: Would you say CCCNC(=O)/C=C/c1ccc2c(c1)OCO2 shows Average Diameter of the Colony at minimum 1 cm?
Result: Criterion met

Ask: Threshold query (Average Diameter of the Colony >= 1 cm) on O=C(/C=C/c1ccc2c(c1)OCO2)N1CCCCC1
Result: Criterion not met

---

# Test system: F. graminearum
# assay.summary: microbe, parasite or virus in culture
# Type: cell-based
# test.conditions: F. graminearum; 1 mg/mL
measure.name: Average Diameter of the Colony (cm)
Express the result in cm but write the number alone.

Solved cases (3 shown):
O=C(/C=C/c1ccc2c(c1)OCO2)N1CCCCC1	0.00
COc1ccc(C(=CC(=O)N2CCOCC2)c2ccc(Cl)cc2)cc1OC	6.23
CO/C=C(/C(=O)OC)c1ccccc1Oc1cc(Oc2ccccc2C#N)ncn1	6.23

Next item in the queue.
# compound COC(=O)Nc1nc2ccccc2[nH]1 ; its Average Diameter of the Colony = 1.17
